System: PRKR;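 note: KINOMEscan kinase panel screen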
Construct: gene EIF2AK2
Conditions: concentration: 1 μM, replicates: in singlicate; n = 1
ENDPOINT: %Inh (%)
Numbers only; they are read as %.

Field %Inh (entry `Cc1cccc(-c2nc(-c3ccc(S(C)(=O)=O)cc3)sc2-c2ccnc(NCCc3ccccc3)c2)c1` ) reads 0

Value of %Inh reported for the compound `Cn1ccc2ncnc(Oc3ccc(NC(=O)Nc4ccccc4)cc3)c21` is 0

Lab note: measured %Inh of COc1ccccc1-c1ccc2c(NC(=O)C3CC3)n[nH]c2n1 [SB-711239] was 7

The recorded %Inh for entry COc1ccc(Nc2nccc(NCCNC(=O)Nc3ccccc3F)n2)cc1 [GSK1379901] equals 1

Sample Cc1cc(-c2ccc3c(c2)CC[C@@H](N[C@@H](C)c2ccccc2)C3)cnc1N.Cl [GW412617] ; %Inh observed: 0

Entry under test: COc1ccc(CNC(=O)NC2CCN(c3ccnc(Nc4cc(OC)c(OC)c(OC)c4)n3)C2)cc1 (stereo not drawn) [GSK1379748] . Its %Inh was 14
